# test system: Complex I (Bos taurus)
# protocol summary: Determination of Complex I mediated ROS-inhibition (CI)
# Type: biochemical, bovine
# experimental conditions: read-out: CI IC50; Complex I purified from bovine heart; ROS detected via Amplex Red/horse radish peroxidase; 8 point concentration-response
metric name: pIC50
Worth noting: pIC50 values are minus log10 of concentrations stated in mol/L.

Checklist item: pIC50 tested on Complex I (Bos taurus), entry `CC(C)Nc1ccc2c(c1)/C(=C1\CCOCCN1)C(=O)N2C1CCOCC1` , value?
6.71

----------
# test system: Complex I (Bos taurus, UniProt P25708)
# protocol summary: Determination of Complex I mediated ROS-inhibition (CI)
# Assay type: biochemical, bovine
# experimental conditions: read-out: CI IC50
metric name: IC50 (nM)
// units = nM; emit number, no label

compound="CN1[C@@H]2CC[C@H]1CC(Nc1ccc3c(c1)/C(=C1\\COCCN1)C(=O)N3C1CCOCC1)C2 (stereo partly drawn)" recorded_result=202

Request the reported IC50 associated with CN1C(=O)/C(=C2/COCCN2)c2cc(NC3CC4CCC(C3)N4C)ccc21 (stereo not drawn)
189

Given CC(C)N1C(=O)/C(=C2/COCCN2)c2cc(NC3C[C@H]4CC[C@@H](C3)N4C)ccc21 (stereo partly drawn) , state its recorded IC50.
916
